Reference for the values: patent US10793557B2

Molecular target: full-length HAQ STING (Homo sapiens, UniProt Q86WV6, G230A/H232R/R293Q/R71H)
Construct: AviTag (after GG linker) (C); HRV3C cleavage site (after GS linker) (C); HIS8 (C); made in house; host or cells: Trichoplusia ni (Hi-Five) insect cells infected with baculovirus (virus generated and amplified in Sf21 cells); used as a washed membrane preparation
Sequence (Q86WV6 with tags, fused parts or gaps R71H/G230A/H232R/R293Q): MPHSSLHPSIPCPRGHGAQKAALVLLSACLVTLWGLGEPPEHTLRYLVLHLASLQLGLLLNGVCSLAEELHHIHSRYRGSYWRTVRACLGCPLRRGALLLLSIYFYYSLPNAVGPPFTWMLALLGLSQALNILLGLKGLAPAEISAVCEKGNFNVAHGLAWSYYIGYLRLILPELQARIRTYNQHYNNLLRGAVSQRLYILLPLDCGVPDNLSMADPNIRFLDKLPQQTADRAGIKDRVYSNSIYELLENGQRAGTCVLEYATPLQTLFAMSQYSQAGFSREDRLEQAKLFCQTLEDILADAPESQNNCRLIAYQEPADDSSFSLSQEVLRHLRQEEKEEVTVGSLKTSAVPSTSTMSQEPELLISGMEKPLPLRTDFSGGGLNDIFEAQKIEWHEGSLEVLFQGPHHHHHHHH
Assay: 3H-cGAMP filtration binding assay (HAQ STING)
Conditions: competition with tritiated cGAMP, HAQ STING membrane
From the text: The ability of compounds to bind STING is quantified by the ability to compete with tritiated cGAMP ligand for human STING receptor membrane using a radioactive filter-binding assay. […] The ability of compounds to bind STING is quantified by their ability to compete with tritiated cGAMP ligand for human STING receptor membrane using a radioactive filter-binding assay. […]
Below, each entry is listed with its recorded EC50.
Numbers only here, please. The scale is nM.

Please provide the recorded EC50 for COc1cc2sc(C(=O)CCC(=O)O)cc2c(F)c1OCCCOc1c(OC)cc2sc(C(=O)C[C@H](C)C(=O)O)cc2c1F [Example 64] , tested on full-length HAQ STING (Homo sapiens, UniProt Q86WV6, G230A/H232R/R293Q/R71H).
2

Tell me reported EC50 for COc1cc2sc(C(=O)CCC(=O)O)cc2cc1OCCCOc1nc2cc(C(=O)C[C@H](C)C(=O)O)sc2cc1OC [Example 18] , tested with full-length HAQ STING (Homo sapiens, UniProt Q86WV6, G230A/H232R/R293Q/R71H).
2

Param readout= EC50; system= full-length HAQ STING (Homo sapiens, UniProt Q86WV6, G230A/H232R/R293Q/R71H); entry= COc1cc2sc(C(=O)CCC(=O)O)nc2cc1CCCc1cc2nc(C(=O)CCC(=O)O)sc2cc1OC [Example 27] ; returns value.
89

* * *

target: full-length WT STING (Homo sapiens, UniProt Q86WV6, H232R); construct: AviTag (after gg linker) (C); HRV3C cleavage site (after gs linker) (C); HIS8 (C); made in house; host or cells: Trichoplusia ni (Hi-Five) insect cells infected with baculovirus (virus generated and amplified in Sf21 cells); used as a washed membrane preparation; assay: 3H-cGAMP filtration binding assay (WT STING); details: competition with tritiated cGAMP, WT STING membrane
Sequence (Q86WV6 with tags, fused parts or gaps H232R): as the sequence (Q86WV6 with tags, fused parts or gaps R71H/G230A/H232R/R293Q) above, with H71R, A230G, Q293R counted along it
Listed next: entries and their corresponding EC50.
Returns: string containing the numeric result and its unit.

COc1cc2sc(C(=O)C[C@H](C)C(=O)O)cc2c(Cl)c1OCCCOc1c(OC)cc2sc(C(=O)C[C@H](C)C(=O)O)cc2c1Cl :: 10 nM
COc1cc2sc(C(=O)CCC(=O)O)cc2nc1OCCOc1c(OC)cc2sc(C(=O)CCC(=O)O)cc2c1F :: 23 nM
COc1cc2sc(C(=O)C[C@H](C)C(=O)O)cc2c(F)c1OCCCOc1c(OC)cc2sc(C(=O)[C@@H]3C[C@H]3C(=O)O)cc2c1F :: 9 nM
COc1cc2sc(C(=O)CCC(=O)O)cc2cc1CCCOc1c(OC)cc2sc(C(=O)CCC(=O)O)cc2c1F :: 9 nM
COc1cc2sc(C(=O)C[C@H](C)C(=O)O)cc2cc1CCNc1cc2cc(C(=O)C[C@H](C)C(=O)O)sc2cc1OC :: 67 nM

Request the reported EC50 associated with COc1cc2sc(C(=O)C[C@H](C)C(=O)O)cc2cc1OCCCCOc1cc2cc(C(=O)C[C@H](C)C(=O)O)sc2cc1OC
7 nM

Which measured EC50 value corresponds to COc1cc2sc(C(=O)C[C@H](C)C(=O)O)cc2c(Cl)c1OCCCOc1cc2cc(C(=O)C[C@H](C)C(=O)O)sc2cc1O ?
2 nM

* * *

molecular target: full-length WT STING (Homo sapiens, UniProt Q86WV6, H232R); construct: AviTag (after gg linker) (C); HRV3C cleavage site (after gs linker) (C); HIS8 (C); made in house; host or cells: Trichoplusia ni (Hi-Five) insect cells infected with baculovirus (virus generated and amplified in Sf21 cells); used as a washed membrane preparation; experiment: 3H-cGAMP filtration binding assay (WT STING); conditions: competition with tritiated cGAMP, WT STING membrane
Measured EC50 values are reported for all entries that follow.
// note: answer is a bare numeric in nM

Past entries and their recorded results:
COc1cc2sc(C(=O)CCC(=O)O)cc2nc1OCCCOc1c(OC)cc2sc(C(=O)CCC(=O)O)cc2c1F [Example 82] :: 2
COc1cc2sc(C(=O)CCC(=O)O)cc2cc1CCCc1cc2cc(C(=O)CCC(=O)O)sc2cc1OC [Example 25] :: 23

Let's switch to this molecule now.
Fill in the recorded EC50 for this molecule, with full-length WT STING (Homo sapiens, UniProt Q86WV6, H232R) as test system: COc1cc2sc(C(=O)C[C@H](C)C(=O)O)cc2c(F)c1OCCCOc1cc2sc(C(=O)[C@@H]3CC[C@H]3C(=O)O)cc2c(F)c1OC (single isomer, unassigned) [Example 96]
628

* * *

biological target: full-length HAQ STING (Homo sapiens, UniProt Q86WV6, G230A/H232R/R293Q/R71H); construct: AviTag (after GG linker) (C); HRV3C cleavage site (after GS linker) (C); HIS8 (C); made in house; host or cells: Trichoplusia ni (Hi-Five) insect cells infected with baculovirus (virus generated and amplified in Sf21 cells); used as a washed membrane preparation; test: 3H-cGAMP filtration binding assay (HAQ STING); details: competition with tritiated cGAMP, HAQ STING membrane
RESULT_TYPE: EC50 (nM)
Please respond with the number in nM and leave the unit unwritten.

# count of solved cases: 3
COc1cc2sc(C(=O)CCC(=O)O)cc2c(F)c1OCCCOc1cc2sc(C(=O)C[C@H](C)C(=O)O)cc2nc1OC [Example 168] :: 13
COc1cc2sc(C(=O)C[C@H](C)C(=O)O)cc2c(F)c1CCCOc1c(OC)cc2sc(C(=O)C[C@H](C)C(=O)O)cc2c1F [Example 164] :: 1
COc1cc2sc(C(=O)C[C@H](C)C(=O)O)cc2cc1OCCCOc1c(OC)cc2sc(C(=O)C[C@H](C)C(=O)NS(=O)(=O)N(C)C)cc2c1F [Example 178] :: 4

Value lookup for EC50; key = COc1cc2sc(C(=O)CCC(=O)O)cc2nc1OCCCOc1c(OC)cc2sc(C(=O)CCC(=O)O)cc2c1F [Example 82]
1

Any idea what its EC50 is? The molecule is COc1cc2sc(C(=O)C[C@H](C)C(=O)O)cc2cc1OCCCOc1c(OC)cc2sc(CC[C@H](C)C(=O)O)cc2c1F [Example 169]
1

Quick check: EC50 of COc1cc2sc(C(=O)CCC(=O)O)cc2cc1CCCOc1c(OC)cc2sc(C(=O)CCC(=O)O)cc2c1F [Example 32] ?
4

# input molecule: COc1cc2sc(C(=O)C[C@H](C)C(=O)O)cc2cc1OCCCOc1c(OC)cc2sc(C(=O)C[C@H](C)C(=O)NS(C)(=O)=O)cc2c1F [Example 179] ; wanted: its EC50
1

* * *

target: full-length WT STING (Homo sapiens, UniProt Q86WV6, H232R); construct: AviTag (after gg linker) (C); HRV3C cleavage site (after gs linker) (C); HIS8 (C); made in house; host or cells: Trichoplusia ni (Hi-Five) insect cells infected with baculovirus (virus generated and amplified in Sf21 cells); used as a washed membrane preparation; experiment: 3H-cGAMP filtration binding assay (WT STING); conditions: competition with tritiated cGAMP, WT STING membrane
RESULT_TYPE: EC50 (nM)
# unit: nM | format: bare number

Past entries and their recorded results:
COc1cc2sc(C(=O)C[C@H](C)C(=O)O)cc2c(F)c1OCC(C)(C)COc1c(OC)cc2sc(C(=O)C[C@H](C)C(=O)O)cc2c1F [Example 143] :: 1450
COc1cc2sc(C(=O)C[C@H](C)C(=O)O)cc2c(F)c1CCCOc1c(OC)cc2sc(CCC(C)(C)C(=O)O)cc2c1F [Example 114] :: 264
COc1cc2sc(C(=O)C[C@H](C)C(=O)O)cc2cc1OCCCOc1c(O)cc2sc(C(=O)C[C@H](C)C(=O)O)cc2c1F [Example 189] :: 2
COc1cc2sc(C(=O)CCC(=O)O)cc2cc1CCCOc1nc2cc(C(=O)C[C@H](C)C(=O)O)sc2cc1OC [Example 3] :: 273

EC50 for COc1cc2sc(C(=O)CCC(=O)O)cc2cc1OCCOc1cc2cc(C(=O)CCC(=O)O)sc2cc1OC [Example 38] ?
1040

Item COc1cc2sc(C(=O)CCC(=O)O)cc2c(F)c1OCCCOc1c(OC)cc2sc(C(=O)C[C@H](C)C(=O)O)cc2c1F [Example 64] has what recorded EC50?
4

Given the entry COc1cc2sc(CC[C@H](C)C(=O)O)cc2c(F)c1OCCCOc1cc2cc(C(=O)C[C@H](C)C(=O)O)sc2cc1O [Example 181] , report its measured EC50.
177

Find the recorded EC50 belonging to COc1cc2sc(C(=O)C[C@H](C)C(=O)O)cc2cc1NCCCOc1c(OC)cc2sc(C(=O)C[C@H](C)C(=O)O)cc2c1F [Example 176] and report it.
2

Fill in: EC50 of C[C@@H](CC(=O)c1cc2cc(OCCCOc3cc4cc(C(=O)C[C@H](C)C(=O)O)sc4cc3OC(F)F)c(OC(F)F)cc2s1)C(=O)O [Example 79] is ___
12

Form field: reported EC50 of COc1cc2sc(C(=O)C[C@H](C)C(=O)O)cc2cc1OCCCOc1c(O)cc2sc(C(=O)C[C@H](C)C(=O)O)cc2c1Cl [Example 183]
3

Any idea what EC50 was measured for COc1cc2sc(C(=O)C[C@H](C)C(=O)O)cc2c(F)c1OCCCOc1cc2cc(C(=O)C[C@H](C)C(=O)O)sc2cc1O [Example 180] ?
1

Form field: reported EC50 of COc1cc2sc(C(=O)C[C@H](C)C(=O)O)cc2c(F)c1CCCOc1c(OC)cc2sc(C(=O)[C@@H]3CC3C(=O)O)cc2c1F (stereo partly shown) [Example 106]
251

EC50 lookup needed for COc1cc2sc(C(=O)CCC(=O)O)cc2cc1OCCCOc1nc2cc(C(=O)C[C@H](C)C(=O)O)sc2cc1OC [Example 18] , thanks.
8
